Target: EGFR (UniProt P00533)
Sequence (P00533 whole entry, looked up): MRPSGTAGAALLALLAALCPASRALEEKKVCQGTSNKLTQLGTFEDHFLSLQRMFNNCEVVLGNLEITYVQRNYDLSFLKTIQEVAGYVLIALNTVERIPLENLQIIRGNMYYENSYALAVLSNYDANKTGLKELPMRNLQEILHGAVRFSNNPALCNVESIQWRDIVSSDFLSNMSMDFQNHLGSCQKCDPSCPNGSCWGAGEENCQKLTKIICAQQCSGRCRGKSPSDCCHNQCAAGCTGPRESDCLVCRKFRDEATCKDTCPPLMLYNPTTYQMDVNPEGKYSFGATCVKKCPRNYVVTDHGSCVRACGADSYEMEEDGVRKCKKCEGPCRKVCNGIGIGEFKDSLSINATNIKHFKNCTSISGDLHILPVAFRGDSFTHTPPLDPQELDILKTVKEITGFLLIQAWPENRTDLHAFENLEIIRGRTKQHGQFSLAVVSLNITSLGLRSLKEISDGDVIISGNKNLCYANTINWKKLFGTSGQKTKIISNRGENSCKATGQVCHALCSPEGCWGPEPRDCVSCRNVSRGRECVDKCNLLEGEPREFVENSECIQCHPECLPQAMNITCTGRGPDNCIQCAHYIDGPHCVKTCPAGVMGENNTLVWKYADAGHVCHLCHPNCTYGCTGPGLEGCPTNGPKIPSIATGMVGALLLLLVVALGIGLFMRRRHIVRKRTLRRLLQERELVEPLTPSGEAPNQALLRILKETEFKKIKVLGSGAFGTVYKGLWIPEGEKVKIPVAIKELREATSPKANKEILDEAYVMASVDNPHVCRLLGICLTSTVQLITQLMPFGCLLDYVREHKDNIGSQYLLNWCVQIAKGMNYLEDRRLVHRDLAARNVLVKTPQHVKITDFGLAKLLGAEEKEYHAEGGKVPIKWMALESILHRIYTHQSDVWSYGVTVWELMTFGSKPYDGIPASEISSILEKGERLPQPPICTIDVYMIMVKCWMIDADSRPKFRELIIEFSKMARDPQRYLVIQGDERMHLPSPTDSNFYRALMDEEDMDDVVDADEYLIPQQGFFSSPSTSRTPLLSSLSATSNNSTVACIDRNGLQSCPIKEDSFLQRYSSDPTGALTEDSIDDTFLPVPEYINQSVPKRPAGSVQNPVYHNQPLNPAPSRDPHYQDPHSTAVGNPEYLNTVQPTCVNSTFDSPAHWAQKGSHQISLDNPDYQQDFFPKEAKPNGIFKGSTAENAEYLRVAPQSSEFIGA
Measurement kind: IC50

Compound	IC50
COc1cc(Nc2ncnc(-c3cccnc3NCc3ccc(F)cc3)n2)cc(OC)c1OC	> 4.5 µg/mL
COc1cc(Nc2ncnc(Nc3ccc4c(c3)Cc3ccccc3-4)n2)cc(OC)c1OC	> 4.5 µg/mL
COc1cc(Nc2ncnc(N3CCc4ccccc4C3)n2)cc(OC)c1OC	> 4.5 µg/mL
CC(C)(C)c1cc(Nc2ncnc(Nc3ccc(CO)cc3)n2)[nH]n1	0.4 to 2.4 µg/mL
CC(C)Nc1ncccc1-c1ncnc(Nc2cccc(CO)c2)n1	3.5 to 4.5 µg/mL
CC(=O)NS(=O)(=O)c1ccc(Nc2ncnc(-n3c(=O)[nH]c4ccccc43)n2)cc1	> 4.5 µg/mL

// compound COC(=O)c1ccc(-c2cc(Nc3ncnc(NCCCO)n3)[nH]n2)cc1 , assay EGFR (UniProt P00533), IC50 value: > 4.5 µg/mL

// compound COc1cc(Nc2ncnc(Nc3ccc(C(C)C)cc3)n2)cc(OC)c1OC , assay EGFR (UniProt P00533), IC50 value: > 4.5 µg/mL

// compound Fc1ccc(CNc2ncnc(Nc3cc(-c4ccco4)n[nH]3)n2)cc1 , assay EGFR (UniProt P00533), IC50 value: 3.5 to 4.5 µg/mL

// compound Nc1ncnc(Nc2cccc(Nc3ncnc(N)n3)c2)n1 , assay EGFR (UniProt P00533), IC50 value: > 4.5 µg/mL

// compound CCN1CCCC1CNc1ncnc(Nc2ccc(OC)c(OC)c2)n1 (stereo not given) , assay EGFR (UniProt P00533), IC50 value: > 4.5 µg/mL

// compound Cc1ccc(Cl)cc1Nc1ncnc(Nc2cc(Cl)ccc2C)n1 , assay EGFR (UniProt P00533), IC50 value: < 0.4 µg/mL

---

Here's a batch of molecules along with measured IC50 for EGFR (UniProt P00533).

See these solved cases before continuing.
O=S(=O)(O)c1cccc(Nc2ncnc(Nc3cc(-c4ccco4)[nH]n3)n2)c1 < 0.4 µg/mL
C=CCNc1ncccc1-c1ncnc(Nc2ccc(C(N)=O)cc2)n1 > 4.5 µg/mL
COc1cc(Nc2ncnc(Nc3ccc4c(c3)OCO4)n2)cc(OC)c1OC 0.4 to 2.4 µg/mL
COc1cc(Nc2ncnc(-n3ccc4cc(O)ccc43)n2)cc(OC)c1OC > 4.5 µg/mL
CC(=O)Nc1ccc(Nc2ncnc(N3CCCc4cc(C)ccc43)n2)cc1 < 0.4 µg/mL

// IC50 value for Nc1nc2ccccc2n1-c1ncnc(Nc2cccc(Cn3ccnn3)c2)n1 : 2.4 to 3.5 µg/mL

// IC50 value for COc1cc(Nc2ncnc(NC(=O)NCCc3ccccc3)n2)cc(OC)c1OC : > 4.5 µg/mL

// IC50 value for c1ccc(COc2cccc(Nc3ncnc(-c4cccs4)n3)c2)cc1 : > 4.5 µg/mL

// IC50 value for COc1cc(Nc2ncnc(N(C/C=C/c3ccccc3)c3ccc(Cl)cc3)n2)cc(OC)c1OC : < 0.4 µg/mL

---

Here's a batch of compounds along with measured IC50 for EGFR (UniProt P00533).

See these solved cases before continuing.
Compound	IC50
COc1cc(Nc2ncnc(Nc3ccc(O)cc3Cl)n2)cc(OC)c1OC	0.4 to 2.4 µg/mL
CCOc1ccc(Nc2ncnc(N(C)c3cccc(Cl)c3)n2)cc1OCC	< 0.4 µg/mL
COc1cc(Nc2ncnc(N3c4ccccc4CCC3C)n2)cc(OC)c1OC (stereo not drawn)	0.4 to 2.4 µg/mL

// IC50 value for COC(=O)c1ccc(-c2cc(Nc3ncnc(NCc4cccnc4)n3)[nH]n2)cc1 : > 4.5 µg/mL

// IC50 value for Nc1nc2ccccc2n1-c1ncnc(Nc2ccc(N3CCOCC3)cc2)n1 : 3.5 to 4.5 µg/mL

// IC50 value for COc1ccc(Nc2ncnc(NCCCN3CCN(C)CC3)n2)cc1OC : > 4.5 µg/mL

// IC50 value for COc1ccc(Nc2ncnc(NCC(O)c3ccccc3)n2)cc1OC (stereo not drawn) : 3.5 to 4.5 µg/mL

// IC50 value for CNS(=O)(=O)Cc1ccc(Nc2ncnc(Nc3cc(-c4ccc(C(=O)OC)cc4)n[nH]3)n2)cc1 : 2.4 to 3.5 µg/mL

// IC50 value for COc1ccc(CNc2ncnc(Nc3ccc4c(cnn4Cc4ccccc4)c3)n2)cc1OC : 3.5 to 4.5 µg/mL

// IC50 value for COc1cc(Nc2ncnc(-n3c(Cl)nc4ccccc43)n2)cc(OC)c1OC : > 4.5 µg/mL

// IC50 value for COc1cc(Nc2ncnc(-n3cc(C)c4ccccc43)n2)cc(OC)c1OC : > 4.5 µg/mL

// IC50 value for COc1cc(Nc2ncnc(-c3cccnc3NCC3CCCCC3)n2)cc(OC)c1OC : > 4.5 µg/mL

// IC50 value for CN(c1ccc(F)c(Cl)c1)c1ncnc(Nc2cccc(Br)c2)n1 : > 4.5 µg/mL

// IC50 value for COc1ccc(Nc2ncnc(NCCCOC(C)C)n2)cc1OC : > 4.5 µg/mL

// IC50 value for COc1cc(Nc2ncnc(Nc3ccc(Cl)c4ccccc34)n2)cc(OC)c1OC : < 0.4 µg/mL

// IC50 value for O=c1[nH]c2ccccc2n1-c1ncnc(Nc2cnc3ccccc3c2)n1 : > 4.5 µg/mL

// IC50 value for COc1cc(Nc2ncnc(-c3cccnc3NC(C)c3ccccc3)n2)cc(OC)c1OC (stereo not drawn) : > 4.5 µg/mL

// IC50 value for COc1cc(Nc2ncnc(-n3c(NCc4ccc(N(C)C)cc4)nc4ccccc43)n2)cc(OC)c1OC : 2.4 to 3.5 µg/mL

// IC50 value for COc1cc(Nc2ncnc(Nc3ccc(Br)cc3)n2)cc(OC)c1OC : 0.4 to 2.4 µg/mL

// IC50 value for Fc1ccc(Nc2ncnc(Nc3ccc4cn[nH]c4c3)n2)cc1Cl : < 0.4 µg/mL

// IC50 value for COc1cc(Nc2ncnc(-n3c(NCC(N)=O)nc4ccccc43)n2)cc(OC)c1OC : > 4.5 µg/mL

// IC50 value for O=c1[nH]c2ccccc2n1-c1ncnc(Nc2ccc(Cl)cc2Cl)n1 : > 4.5 µg/mL

// IC50 value for CNc1ncnc(Nc2cc(OC)c(OC)c(OC)c2)n1 : > 4.5 µg/mL

// IC50 value for COc1ccc(Nc2ncnc(-n3c(N)nc4ccccc43)n2)cc1O : 2.4 to 3.5 µg/mL

// IC50 value for NC(=O)[C@H](CO)Nc1ncnc(-n2c(=O)[nH]c3ccccc32)n1 : > 4.5 µg/mL

// IC50 value for Cc1cccc(Nc2ncnc(Nc3ccc4[nH]ccc4c3)n2)c1 : < 0.4 µg/mL
